Quick record of AC50 values for UniProtKB P11712.
Sequence (P11712 whole entry): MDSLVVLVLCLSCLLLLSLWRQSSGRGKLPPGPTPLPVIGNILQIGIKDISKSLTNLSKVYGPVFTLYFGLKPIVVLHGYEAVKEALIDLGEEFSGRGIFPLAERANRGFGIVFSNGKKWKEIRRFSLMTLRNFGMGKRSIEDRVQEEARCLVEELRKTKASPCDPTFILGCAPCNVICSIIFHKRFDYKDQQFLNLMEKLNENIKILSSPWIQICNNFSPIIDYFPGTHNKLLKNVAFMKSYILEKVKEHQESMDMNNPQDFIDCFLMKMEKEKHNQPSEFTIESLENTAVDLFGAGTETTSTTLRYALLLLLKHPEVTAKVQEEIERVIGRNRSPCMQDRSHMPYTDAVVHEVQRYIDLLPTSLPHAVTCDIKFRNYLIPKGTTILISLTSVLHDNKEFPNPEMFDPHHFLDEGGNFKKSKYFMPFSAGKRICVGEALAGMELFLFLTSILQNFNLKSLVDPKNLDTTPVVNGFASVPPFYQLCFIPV

>  <smilesData>
Cc1ccc(-c2c(C#N)c(N)n(-c3ccccc3)c(=O)c2C#N)cc1

>  <AC50>
7.94 µM (inconclusive)

$$$$
>  <smilesData>
O=C(Nc1nnc(C2CC2)s1)c1ccc(S(=O)(=O)c2ccccc2)cc1

>  <AC50>
0.794 µM (inconclusive)

$$$$
>  <smilesData>
CCOC(=O)O[C@]1(C(=O)COC(=O)CC)CC[C@@H]2[C@@H]3CCC4=CC(=O)C=C[C@@]4(C)[C@H]3[C@H](O)C[C@]21C

>  <AC50>
12.6 µM (inconclusive)

$$$$
>  <smilesData>
OCCSCc1cc(Cl)cc(Cl)c1O

>  <AC50>
3.98 µM (inconclusive)

$$$$

###

# testSystem: Paired box protein Pax-8 (Homo sapiens, UniProt Q06710)
# Sequence (Q06710 whole entry): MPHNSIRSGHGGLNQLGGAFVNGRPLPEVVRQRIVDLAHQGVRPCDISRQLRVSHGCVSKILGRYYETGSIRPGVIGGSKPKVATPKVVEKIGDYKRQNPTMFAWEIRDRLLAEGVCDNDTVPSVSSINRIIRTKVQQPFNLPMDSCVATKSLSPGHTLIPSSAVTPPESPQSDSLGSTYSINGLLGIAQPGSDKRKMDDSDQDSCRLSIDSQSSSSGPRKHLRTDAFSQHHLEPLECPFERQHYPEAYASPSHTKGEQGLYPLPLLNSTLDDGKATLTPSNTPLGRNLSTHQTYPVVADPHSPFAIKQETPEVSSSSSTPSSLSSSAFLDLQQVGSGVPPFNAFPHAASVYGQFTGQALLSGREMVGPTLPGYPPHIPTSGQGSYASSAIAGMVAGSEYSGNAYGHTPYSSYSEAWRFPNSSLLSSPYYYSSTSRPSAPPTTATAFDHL
# assayInfo: inhibitors of PAX8-driven TPO luciferase reporter, dose response, RMG-I cells, cherry-pick (AID 687027);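 further: luciferase reporter driven by Pax8 target thyroperoxidase promoter measured by SteadyGlo luminescence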
# Format: functional, cell-based
The source made the active and inactive calls. No rule for the calls is given here.
Reported AC50 values follow for various molecules
readoutLabel: AC50

>  <molecule>
C[C@@H]1CN([C@@H](C)CO)C(=O)Cc2cc(NC(=O)CCC(F)(F)F)ccc2O[C@H]1CN(C)Cc1ccc(Oc2ccccc2)cc1

>  <assayResult>
10.6 µM (active)

$$$$
>  <molecule>
C[C@H](CO)N1C[C@H](C)[C@@H](CN(C)Cc2ccc(Oc3ccccc3)cc2)Oc2ccc(NS(=O)(=O)c3ccc(F)cc3)cc2CC1=O

>  <assayResult>
6.47 µM (active)

$$$$
>  <molecule>
C=C1C(=O)[C@]23C[C@H]1CC[C@H]2[C@]1(C)[C@@H](OC(C)=O)CC[C@@](C)(C(=O)OC)[C@H]1C[C@@H]3OC(C)=O

>  <assayResult>
3.62 µM (active)

$$$$
>  <molecule>
COc1ccc(NC(=O)C(=O)NCC2CCCN2S(=O)(=O)c2ccc(C)cc2)cc1 (centres undefined)

>  <assayResult>
0.709 µM (active)

$$$$

###

Quick record of AC50 values for Cytochrome P450 1A2 (Homo sapiens, UniProt P05177).
readoutLabel: AC50

>  <molecule>
O=C(Nc1cccc(F)c1)N1CC2(CCN(C(=O)Oc3ccccc3)CC2)C1

>  <testSystem>
Cytochrome P450 1A2 (Homo sapiens, UniProt P05177)
Sequence (P05177 whole entry): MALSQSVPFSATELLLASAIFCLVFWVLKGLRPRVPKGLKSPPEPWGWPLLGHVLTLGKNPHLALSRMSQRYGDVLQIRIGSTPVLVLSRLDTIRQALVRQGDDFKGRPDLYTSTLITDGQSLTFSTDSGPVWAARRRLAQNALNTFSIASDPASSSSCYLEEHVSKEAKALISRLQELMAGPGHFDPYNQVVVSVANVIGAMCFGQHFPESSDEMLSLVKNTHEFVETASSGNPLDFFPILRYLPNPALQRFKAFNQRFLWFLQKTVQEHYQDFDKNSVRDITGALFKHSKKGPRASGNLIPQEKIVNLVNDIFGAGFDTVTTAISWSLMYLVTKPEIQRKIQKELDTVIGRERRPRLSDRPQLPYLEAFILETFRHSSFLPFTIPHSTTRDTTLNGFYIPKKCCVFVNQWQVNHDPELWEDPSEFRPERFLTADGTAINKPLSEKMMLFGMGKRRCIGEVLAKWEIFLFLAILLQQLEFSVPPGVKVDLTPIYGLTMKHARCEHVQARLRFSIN

>  <assayResult>
12.6 µM (inconclusive)

$$$$
>  <molecule>
N#CCCn1c(=O)c(CCc2ccccc2)nc2cnc(Oc3ccccc3)nc21

>  <testSystem>
Cytochrome P450 1A2 (Homo sapiens, UniProt P05177)

>  <assayResult>
12.6 µM (inconclusive)

$$$$
>  <molecule>
Cc1ccc(-c2c(C#N)c(N)n(-c3ccccc3)c(=O)c2C#N)cc1

>  <testSystem>
Cytochrome P450 1A2 (Homo sapiens, UniProt P05177)

>  <assayResult>
11.2 µM (inconclusive)

$$$$
>  <molecule>
Cc1cc(C(F)F)n2ncc(C(=O)NCc3ccccc3C(F)(F)F)c2n1

>  <testSystem>
Cytochrome P450 1A2 (Homo sapiens, UniProt P05177)

>  <assayResult>
0.708 µM (inconclusive)

$$$$
>  <molecule>
C/C(CC(=O)NCc1ccco1)=N\NC(=O)Cc1ccc(Cl)cc1

>  <testSystem>
Cytochrome P450 1A2 (Homo sapiens, UniProt P05177)

>  <assayResult>
20 µM (inconclusive)

$$$$
>  <molecule>
CCOc1cccc(C2C(C(=O)c3ccc(C)o3)=C(O)C(=O)N2Cc2ccncc2)c1 (stereo not drawn)

>  <testSystem>
Cytochrome P450 1A2 (Homo sapiens, UniProt P05177)

>  <assayResult>
39.8 µM (inconclusive)

$$$$
>  <molecule>
CCOC(=O)C1CCCN(C(=O)CCCOc2cc(=O)n(C)c3ccccc23)C1 (stereo not drawn)

>  <testSystem>
Cytochrome P450 1A2 (Homo sapiens, UniProt P05177)

>  <assayResult>
25.1 µM (inconclusive)

$$$$
>  <molecule>
COc1cccc(NS(=O)(=O)c2ccc3ncc(C(=O)NCCN4CCOCC4)c(O)c3c2)c1

>  <testSystem>
Cytochrome P450 1A2 (Homo sapiens, UniProt P05177)

>  <assayResult>
12.6 µM (inconclusive)

$$$$
>  <molecule>
N[C@@H](Cn1cc(I)c(=O)[nH]c1=O)C(=O)O

>  <testSystem>
Cytochrome P450 1A2 (Homo sapiens, UniProt P05177)

>  <assayResult>
39.8 µM (inconclusive)

$$$$
>  <molecule>
Cc1nc2ccccc2c(=O)n1-n1cnnc1

>  <testSystem>
Cytochrome P450 1A2 (Homo sapiens, UniProt P05177)

>  <assayResult>
3.16 µM (inconclusive)

$$$$
>  <molecule>
Cc1ccc(-c2nnc(N(C)C(=O)c3cccnc3)s2)cc1

>  <testSystem>
Cytochrome P450 1A2 (Homo sapiens, UniProt P05177)

>  <assayResult>
10 µM (inconclusive)

$$$$
>  <molecule>
O=C(c1cccc(F)c1)N1CCC2(CC1)CCN(c1ncccn1)CC2

>  <testSystem>
Cytochrome P450 1A2 (Homo sapiens, UniProt P05177)

>  <assayResult>
10 µM (inconclusive)

$$$$
>  <molecule>
CCCS(=O)(=O)N1CCN(CC2CC=CCC2)CC1 (stereo not drawn)

>  <testSystem>
Cytochrome P450 1A2 (Homo sapiens, UniProt P05177);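 further: PubChem cytochrome P450 panel assay, CYP1A2 panel member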

>  <assayResult>
12.6 µM (inconclusive)

$$$$
